// data source = paper PMC2737144

Provide the recorded log10(EC50) for the entries that follow.
# Assay target: AaOR8/AaOR7 protein complex (Aedes aegypti, UniProt Q16MN0)
# Sequence (Q16MN0 32-422): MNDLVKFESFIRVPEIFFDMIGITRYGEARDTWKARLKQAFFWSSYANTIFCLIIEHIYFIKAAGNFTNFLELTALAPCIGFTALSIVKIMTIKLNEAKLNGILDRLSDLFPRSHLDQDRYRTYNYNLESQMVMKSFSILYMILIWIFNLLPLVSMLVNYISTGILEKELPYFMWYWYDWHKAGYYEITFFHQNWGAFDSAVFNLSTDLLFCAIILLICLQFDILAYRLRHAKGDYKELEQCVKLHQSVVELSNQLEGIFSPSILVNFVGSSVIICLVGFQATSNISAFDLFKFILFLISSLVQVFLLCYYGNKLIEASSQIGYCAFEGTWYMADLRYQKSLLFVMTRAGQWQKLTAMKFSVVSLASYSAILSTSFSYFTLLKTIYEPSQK
# Sequence (Q178U6 whole entry partner): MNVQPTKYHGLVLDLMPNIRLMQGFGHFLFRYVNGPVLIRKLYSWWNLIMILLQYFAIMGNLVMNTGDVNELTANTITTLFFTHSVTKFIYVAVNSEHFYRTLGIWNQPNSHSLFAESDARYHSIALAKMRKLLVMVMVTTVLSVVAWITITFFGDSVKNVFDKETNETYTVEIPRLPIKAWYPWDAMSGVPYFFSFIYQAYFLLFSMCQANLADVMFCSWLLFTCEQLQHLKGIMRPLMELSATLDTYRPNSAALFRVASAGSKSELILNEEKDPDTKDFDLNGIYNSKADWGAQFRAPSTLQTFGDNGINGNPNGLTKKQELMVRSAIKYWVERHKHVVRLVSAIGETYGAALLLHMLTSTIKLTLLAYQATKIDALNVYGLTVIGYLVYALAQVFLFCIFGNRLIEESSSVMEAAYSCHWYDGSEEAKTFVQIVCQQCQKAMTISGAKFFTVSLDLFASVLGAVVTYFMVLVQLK
# Test protocol: Two-microelectrode voltage clamp of Xenopus oocytes co-expressing AaOr8 and AaOr7; odorant-induced whole-cell currents
# Condition summary: Xenopus oocytes co-expressing AaOR8 and AaOR7, holding potential −80 mV, 8 sec odorant exposure, non-linear regression curve fit; read-out: EC50 (half maximal effective concentration) of AaOR8
# Procedure: Along with AaOr8, we co-expressed AaOr7 in Xenopus oocytes and electrophysiological responses (Fig. 1B) to each enantiomer were measured using the two-microelectrode voltage clamp technique. […] AaOr7 and AaOr8 cRNAs were synthesized from linearized pSP64DV expression vectors (Dr. Zwiebel, Vanderbilt University) using the mMESSAGE mMACHINE SP6 kit (Ambion). […] Individual oocytes were allowed to recover overnight prior to injection with 10 ng of each cRNA and were recorded 4 to 6 days post-injection. […]
For clarity, the numbers are log10 values of EC50 expressed in µM.

So what log10(EC50) did C=C[C@H](O)CCCCC [(R)-(—)-1-octen-3-ol] get with AaOR8/AaOR7 protein complex (Aedes aegypti, UniProt Q16MN0)? -0.80

So what log10(EC50) did C=CC(=O)CCCCC get with AaOR8/AaOR7 protein complex (Aedes aegypti, UniProt Q16MN0)? 1.36

So what log10(EC50) did CCCCCC(O)CC (stereo not shown) get with AaOR8/AaOR7 protein complex (Aedes aegypti, UniProt Q16MN0)? 0.76

So what log10(EC50) did C=CC(O)CCCC (stereo not shown) get with AaOR8/AaOR7 protein complex (Aedes aegypti, UniProt Q16MN0)? 1.23

So what log10(EC50) did C=CC(O)CCCCCC (stereo not shown) get with AaOR8/AaOR7 protein complex (Aedes aegypti, UniProt Q16MN0)? 0.71

So what log10(EC50) did C=C[C@@H](O)CCCCC [(S)-(+)-1-octen-3-ol] get with AaOR8/AaOR7 protein complex (Aedes aegypti, UniProt Q16MN0)? 1.24

So what log10(EC50) did C=CCC(O)CCCC (stereo not shown) get with AaOR8/AaOR7 protein complex (Aedes aegypti, UniProt Q16MN0)? 1.59
